Recorded glycan array binding signal (z-score), one value per entry.
Biological target: Neu5Ac(a2-3)Gal(b1-3)[Neu5Ac(a2-6)]GlcNAc(b1-3)[Fuc(a1-3)[Gal(b1-4)]GlcNAc(b1-6)]Gal(b1-4)Glc
Assay: glycan array binding signal (z-score within array); higher = stronger binding
Settings: glycan notation: IUPAC condensed, linker removed
The full list was thinned out, with the strongest signals kept by preference.

Binder	glycan array binding signal (z-score)
CSA (Cytisus scoparius), P29257 (protein) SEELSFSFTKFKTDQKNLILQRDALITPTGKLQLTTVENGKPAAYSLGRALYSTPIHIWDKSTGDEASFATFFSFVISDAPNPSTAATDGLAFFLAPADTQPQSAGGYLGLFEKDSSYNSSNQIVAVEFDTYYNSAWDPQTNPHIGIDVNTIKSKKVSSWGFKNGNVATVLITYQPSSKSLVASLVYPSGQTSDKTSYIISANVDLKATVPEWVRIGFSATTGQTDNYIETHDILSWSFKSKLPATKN	-0.146
GNL (Galanthus nivalis) (protein) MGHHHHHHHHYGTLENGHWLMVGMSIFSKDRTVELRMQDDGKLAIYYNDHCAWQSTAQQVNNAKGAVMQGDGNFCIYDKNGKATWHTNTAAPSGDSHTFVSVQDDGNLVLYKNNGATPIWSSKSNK	-0.137
LTL (Lotus tetragonolobus), P19664 (protein) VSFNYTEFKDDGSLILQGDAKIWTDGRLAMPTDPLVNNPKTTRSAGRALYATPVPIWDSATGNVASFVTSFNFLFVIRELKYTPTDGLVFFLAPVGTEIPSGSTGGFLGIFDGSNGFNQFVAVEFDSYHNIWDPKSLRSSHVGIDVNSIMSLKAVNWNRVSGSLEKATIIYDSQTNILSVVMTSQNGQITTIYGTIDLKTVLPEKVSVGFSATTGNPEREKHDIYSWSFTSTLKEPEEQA	-0.123
